# TGI listing for each entry below
System: SF-268 CNS
Assay: NCI tumour cell line growth inhibition, 48 h

Give recorded TGI with SF-268 CNS for the following compound: CN(C)CCCNC(=O)N/N=C/c1ccccn1
> 10 µM

Give recorded TGI with SF-268 CNS for the following compound: CC(C)(C)OC(=O)N1CCC2(CC1)C(=O)NCN2c1ccccc1
> 100 µM

Give recorded TGI with SF-268 CNS for the following compound: CC1(C)N=C(N)N=C(N)N1c1ccc(CCCCCCc2ccc(S(=O)(=O)F)cc2)cc1
31.3 µM

Give recorded TGI with SF-268 CNS for the following compound: COc1cc([C@H]2c3cc4c(cc3[C@H](NCc3ccc(F)cc3)C3COC(=O)[C@H]32)OCO4)cc(OC)c1O (some centres undefined)
> 100 µM

Give recorded TGI with SF-268 CNS for the following compound: O=c1[nH]c(NCCCCCO)nc2nc[nH]c12
> 100 µM

Give recorded TGI with SF-268 CNS for the following compound: CC(C)(C)[C@H]1NC(=O)CN1C(=O)OCc1ccccc1
> 100 µM

Give recorded TGI with SF-268 CNS for the following compound: CCOc1ccccc1NC(=O)C1=C(C)NC(C)=C(C(=O)Nc2ccccc2OCC)C1c1ccc2c(c1)OCO2
> 100 µM

Give recorded TGI with SF-268 CNS for the following compound: CC[C@]1(O)C[C@@H]2CN(CCc3c([nH]c4ccccc34)[C@@](C(=O)OC)(c3cc4c(cc3OC)N(C)[C@H]3[C@@](O)(C(=O)OC)[C@H](OC(=O)CCCBr)[C@]5(CC)C=CCN6CC[C@]43[C@@H]65)C2)C1
17.5 µM

Give recorded TGI with SF-268 CNS for the following compound: Cc1ccccc1NC(=O)C(=O)CC(=O)c1sc(-n2nc(-c3ccccc3)cc2-c2ccccc2)nc1C
> 100 µM

Give recorded TGI with SF-268 CNS for the following compound: Cc1c(C)c2c(c(N)c1C#N)C(=O)N(NC(=S)Nc1ccccc1)C2=O
> 100 µM

Give recorded TGI with SF-268 CNS for the following compound: Cc1ncc([N+](=O)[O-])n1CCOc1ccc(C(=O)/C=C/c2ccc(C(F)(F)F)cc2)cc1
8.49 µM

Give recorded TGI with SF-268 CNS for the following compound: CCOC(=O)c1c(-c2ccc(Cl)cc2)c(C#N)c(=S)n(C2OC(COC(C)=O)C(OC(C)=O)C(OC(C)=O)C2OC(C)=O)c1C (centres undefined)
> 100 µM

Give recorded TGI with SF-268 CNS for the following compound: COc1ccc(C=C2C(C)=NN(c3cccc(Cl)c3)C23C(Cl)C(=O)N3c2nc3ccccc3s2)cc1 (centres undefined)
78.3 µM

Give recorded TGI with SF-268 CNS for the following compound: COC(=O)c1sc2c(Cl)c(Cl)sc2c1Cl
> 100 µM

Give recorded TGI with SF-268 CNS for the following compound: Nc1c([N+](=O)[O-])ncn1C1OC(CO)C(O)C1O (centres undefined)
> 100 µM

Give recorded TGI with SF-268 CNS for the following compound: CC(C)C(Nc1c2ccccc2[n+](C)c2ccccc12)C(=O)O (centres undefined)
> 100 µM

Give recorded TGI with SF-268 CNS for the following compound: COc1ccc(Nc2nc(N)c(C(=O)c3ccco3)s2)cc1
> 100 µM

Give recorded TGI with SF-268 CNS for the following compound: COc1ccc(C2CC(c3cccc(Nc4ccncc4)c3)=NN2c2ccccc2)cc1 (centres undefined)
9.98 µM

Give recorded TGI with SF-268 CNS for the following compound: COc1ccc(-c2nc3sccn3c2/C=C/C(=O)c2cc(OC)c(OC)c(OC)c2)cc1
> 100 µM

Origin of the recorded values: PubChem BioAssay (NCI)
